# ASSAY_SYSTEM: biotinylated C3b (UniProt P01024)
# TEST_PROTOCOL: SPR on immobilised C3b; ratio relative to peptide 14
Bridge positions count the residues as written; N and C are the ends. Square brackets hold non-standard residues; d marks the D form. Trp(1-Me) = Cn1cc(C[C@H](N)C(=O)O)c2ccccc21; NMeI = CC[C@H](C)[C@H](NC)C(=O)O; Nle = CCCC[C@H](N)C(=O)O; Sar = CNCC(=O)O
REPORTED_METRIC: rKD SPR (fold)
Lab book: enter the figure in fold, no units written.

INPUT: Return reported rKD SPR; argument: Ac-ICV[Trp(1-Me)]QDW[Sar]AHRCL-NH2 (disulfide 2-12; SMILES CC[C@H](C)[C@H](NC(C)=O)C(=O)N[C@H]1CSSC[C@@H](C(=O)N[C@@H](CC(C)C)C(N)=O)NC(=O)[C@H](CCCNC(=N)N)NC(=O)[C@H](Cc2c[nH]cn2)NC(=O)[C@H](C)NC(=O)CN(C)C(=O)[C@H](Cc2c[nH]c3ccccc23)NC(=O)[C@H](CC(=O)O)NC(=O)[C@H](CCC(N)=O)NC(=O)[C@H](Cc2cn(C)c3ccccc23)NC(=O)[C@H](C(C)C)NC1=O) [Ac-Ic[CV(1-MeW)QDW(N-MeG)AHRC]L-NH2]
OUTPUT: 2.6

INPUT: Return reported rKD SPR; argument: Ac-ICV[Trp(1-Me)]QDWGAHRCI-NH2 (disulfide 2-12; SMILES CC[C@H](C)[C@H](NC(=O)[C@@H]1CSSC[C@H](NC(=O)[C@@H](NC(C)=O)[C@@H](C)CC)C(=O)N[C@@H](C(C)C)C(=O)N[C@@H](Cc2cn(C)c3ccccc23)C(=O)N[C@@H](CCC(N)=O)C(=O)N[C@@H](CC(=O)O)C(=O)N[C@@H](Cc2c[nH]c3ccccc23)C(=O)NCC(=O)N[C@@H](C)C(=O)N[C@@H](Cc2c[nH]cn2)C(=O)N[C@@H](CCCNC(=N)N)C(=O)N1)C(N)=O, Peptide 14 scaffold with Gly^8, Ile^13; also called 16 (6)) [peptide 16]
OUTPUT: 1.1

INPUT: Return reported rKD SPR; argument: Ac-ICV[Trp(1-Me)]QDW[Sar]AHRCI-NH2 (disulfide 2-12; SMILES CC[C@H](C)[C@H](NC(=O)[C@@H]1CSSC[C@H](NC(=O)[C@@H](NC(C)=O)[C@@H](C)CC)C(=O)N[C@@H](C(C)C)C(=O)N[C@@H](Cc2cn(C)c3ccccc23)C(=O)N[C@@H](CCC(N)=O)C(=O)N[C@@H](CC(=O)O)C(=O)N[C@@H](Cc2c[nH]c3ccccc23)C(=O)N(C)CC(=O)N[C@@H](C)C(=O)N[C@@H](Cc2c[nH]cn2)C(=O)N[C@@H](CCCNC(=N)N)C(=O)N1)C(N)=O, Sar^8, Ile^13; also called peptide 17; Ac-Ic[CV(1-MeW)QDW(N-MeG)AHRC]I-NH2) [Ac-Ile-c[Cys-Val-Trp(Me)-Gln-Asp-Trp-Sar-Ala-His-Arg-Cys]-Ile-NH2]
OUTPUT: 2.7

INPUT: Return reported rKD SPR; argument: Ac-ICV[Trp(1-Me)]QDW[Sar]AHRC[Nle]-NH2 (disulfide 2-12; SMILES CCCC[C@H](NC(=O)[C@@H]1CSSC[C@H](NC(=O)[C@@H](NC(C)=O)[C@@H](C)CC)C(=O)N[C@@H](C(C)C)C(=O)N[C@@H](Cc2cn(C)c3ccccc23)C(=O)N[C@@H](CCC(N)=O)C(=O)N[C@@H](CC(=O)O)C(=O)N[C@@H](Cc2c[nH]c3ccccc23)C(=O)N(C)CC(=O)N[C@@H](C)C(=O)N[C@@H](Cc2c[nH]cn2)C(=O)N[C@@H](CCCNC(=N)N)C(=O)N1)C(N)=O) [Ac-Ic[CV(1-MeW)QDW(N-MeG)AHRC](Nle)-NH2]
OUTPUT: 2.7

INPUT: Return reported rKD SPR; argument: Ac-ICV[Trp(1-Me)]QDW[Sar]AHRC[NMeI]-NH2 (disulfide 2-12; SMILES CC[C@H](C)[C@H](NC(C)=O)C(=O)N[C@H]1CSSC[C@@H](C(=O)N(C)[C@H](C(N)=O)[C@@H](C)CC)NC(=O)[C@H](CCCNC(=N)N)NC(=O)[C@H](Cc2c[nH]cn2)NC(=O)[C@H](C)NC(=O)CN(C)C(=O)[C@H](Cc2c[nH]c3ccccc23)NC(=O)[C@H](CC(=O)O)NC(=O)[C@H](CCC(N)=O)NC(=O)[C@H](Cc2cn(C)c3ccccc23)NC(=O)[C@H](C(C)C)NC1=O, Sar^8, (NMe)Ile^13; also called peptide 21; analog 21) [Ac-Ic[CV(1-MeW)QDW(N-MeG)AHRC](N-MeI)-NH2]
OUTPUT: 5.2
